Biological target: Carbonic anhydrase 2 (Homo sapiens, UniProt P00918)
Property: log10(IC50); scope: individual molecules
Lab note - IC50 converted to log10 from values in µM.

The cases that follow already have their log10(IC50) on record.
- Molecule: "CCCCCCC(O)c1csc(S(N)(=O)=O)c1 (stereo unspecified)"
  log10(IC50): -1.89
- Molecule: "CCCC/C(=N\\O)c1csc(S(N)(=O)=O)c1"
  log10(IC50): -1.82
- Molecule: "NS(=O)(=O)c1cc(C(=O)c2ccccc2)cs1"
  log10(IC50): -2.17
- Molecule: "CCCCCC/C(=N\\N)c1csc(S(N)(=O)=O)c1"
  log10(IC50): -2.70
- Molecule: "CC(=O)c1csc(S(N)(=O)=O)c1"
  log10(IC50): -1.80

Now for another entry.
Observed log10(IC50) on Carbonic anhydrase 2 (Homo sapiens, UniProt P00918) for CCCCC(O[Si](C)(C)C(C)(C)C)c1csc(S(N)(=O)=O)c1 (stereo unspecified) , please. -0.70
